Field: Change (%) in heart rate. Provide a value for each of the compounds that follow.
Test system: Spontaneously Hypertensive Rats
MEASUREMENT DESCRIPTION: Test 1: antihypertensive effects (systolic tail artery blood pressure) and heart rate in spontaneously hypertensive rats, oral
Assay type: in vivo, rat (male, SHR)
MEASUREMENT PARAMETERS: SHR, oral 1 mg/Kg, maximum value

Can you give me Change (%) in heart rate for all of these, one by one?
1. COc1cc2nc(N3CCN(c4ncc(C(=O)NCC(F)(F)F)c(C)n4)CC3)nc(N)c2cc1OC
2. CCCN(CCC)C(=O)c1cnc(N2CCN(c3nc(N)c4cc(OC)c(OC)cc4n3)CC2)nc1NCC
3. CCOC(=O)c1cnc(N2CCN(c3nc(N)c4cc(OC)c(OC)cc4n3)CC2)nc1NC
4. COc1cc2nc(N3CCN(c4ncc5c(=O)[nH]ccc5n4)CC3)nc(N)c2cc1OC

Result:
1. +6.9%
2. +12.3%
3. +7.0%
4. +7.1%

----------
Tested on: Spontaneously Hypertensive Rats
MEASUREMENT DESCRIPTION: Test 1: antihypertensive effects (systolic tail artery blood pressure) and heart rate in spontaneously hypertensive rats, oral
Format: in vivo, rat (male, SHR)
MEASUREMENT PARAMETERS: Rattus norvegicus; SHR, oral 1 mg/Kg, 3 hours; read-out: Antihypertensive effects, change (%) in blood pressure, 3 hours later
Experimental: The antihypertensive effects of the certain compounds of this invention were studied in the following manner. Among male, spontaneously hypertensive rats (SHRs) of 20 weeks of age or older and 350-430 g heavy all of which had developed hypertension, those having systolic blood pressures of 180 mmHg or higher were used in groups, each of which was constituted of 3-4 of the rats. […] Besides, heart rates were also measured simultaneously. […]
For each record, write down the corresponding change in vivo at 1 mg/kg.
One number for each entry, in %.

Batch: change in vivo at 1 mg/kg for all items listed.
1. CCNc1nc(N2CCN(c3nc(N)c4cc(OC)c(OC)cc4n3)CC2)ncc1C(=O)OC(C)C
2. COCCN1Cc2nc(N3CCN(c4nc(N)c5cc(OC)c(OC)cc5n4)CC3)ncc2C1=O
3. CCN(CC)C(=O)c1cnc(N2CCN(c3nc(N)c4cc(OC)c(OC)cc4n3)CC2)nc1NC(C)C
4. CCNc1nc(N2CCN(c3nc(N)c4cc(OC)c(OC)cc4n3)CC2)ncc1C(=O)N(C)C

Result:
1. -22
2. -15.2
3. -33.7
4. -33.7

----------
Tested on: Spontaneously Hypertensive Rats
MEASUREMENT DESCRIPTION: Test 1: antihypertensive effects (systolic tail artery blood pressure) and heart rate in spontaneously hypertensive rats, oral
Format: in vivo, rat (male, SHR)
MEASUREMENT PARAMETERS: SHR, oral 1 mg/Kg, maximum value
TEST READOUT: Change (%) in heart rate

CCN1Cc2nc(N3CCN(c4nc(N)c5cc(OC)c(OC)cc5n4)CC3)ncc2C1=O ... +23.1%
CCOC(=O)c1cnc(N2CCN(c3nc(N)c4cc(OC)c(OC)cc4n3)CC2)nc1N ... +5.2%
CCNc1nc(N2CCN(c3nc(N)c4cc(OC)c(OC)cc4n3)CC2)ncc1C(=O)OC.Cl ... +18.4%
CCn1cc(Cc2ccccc2)c2nc(N3CCN(c4nc(N)c5cc(OC)c(OC)cc5n4)CC3)ncc2c1=O ... +3.7%
COc1cc2nc(N3CCN(c4ncc(C(C)=O)c(C)n4)CC3)nc(N)c2cc1OC ... +9.5%

# per-item lookup of Change (%) in heart rate; items listed below
1. CCCn1ccc2nc(N3CCN(c4nc(N)c5cc(OC)c(OC)cc5n4)CC3)ncc2c1=O
2. CCNC(=O)c1cnc(N2CCN(c3nc(N)c4cc(OC)c(OC)cc4n3)CC2)nc1C
3. CCN(CC)C(=O)c1cnc(N2CCN(c3nc(N)c4cc(OC)c(OC)cc4n3)CC2)nc1NC
4. CCOc1nccc2nc(N3CCN(c4nc(N)c5cc(OC)c(OC)cc5n4)CC3)ncc12
5. COc1cc2nc(N3CCN(c4ncc5c(=O)n(C(C)C)ccc5n4)CC3)nc(N)c2cc1OC
6. CCNC(=O)c1cnc(N2CCN(c3nc(N)c4cc(OC)c(OC)cc4n3)CC2)nc1N
7. COc1cc2nc(N3CCN(c4ncc(C#N)c(O)n4)CC3)nc(N)c2cc1OC
8. CCCCCCCN1Cc2nc(N3CCN(c4nc(N)c5cc(OC)c(OC)cc5n4)CC3)ncc2C1=O

Result:
1. +2.6%
2. +9.2%
3. +25.1%
4. +9.0%
5. +5.1%
6. +9.9%
7. +3.0%
8. +8.7%

// batch mode: one Change (%) in heart rate value per listed entry
1. COc1cc2cnc(N3CCN(c4nc(N)c5cc(OC)c(OC)cc5n4)CC3)nc2cc1OC
2. CCNC(=O)c1cnc(N2CCN(c3nc(N)c4cc(OC)c(OC)cc4n3)CC2)nc1C(=O)NCC
3. CCNC(=O)c1cnc(N2CCN(c3nc(N)c4cc(OC)c(OC)cc4n3)CC2)nc1
4. COCCn1ccc2nc(N3CCN(c4nc(N)c5cc(OC)c(OC)cc5n4)CC3)ncc2c1=O
5. CCn1ccc2nc(N3CCN(c4ncc5ccccc5n4)CC3)ncc2c1=O
6. CCNc1nc(N2CCN(c3nc(N)c4cc(OC)c(OC)cc4n3)CC2)ncc1C(=O)OCC
7. COc1cc2nc(N3CCN(c4ccc5ccccc5n4)CC3)nc(N)c2cc1OC.Cl
8. CCOC(=O)c1cnc(N2CCN(c3nc(N)c4cc(OC)c(OC)cc4n3)CC2)nc1NC(C)=O

Result:
1. +15.9%
2. +3.5%
3. +5.8%
4. +5.2%
5. +2.9%
6. +4.3%
7. +5.4%
8. +6.0%

For each entry beneath this line, provide reported Change (%) in heart rate.
1. COc1cc2nc(N3CCN(c4ncc5c(=O)n(-c6ccccc6)ccc5n4)CC3)nc(N)c2cc1OC
2. CCN1CCc2nc(N3CCN(c4nc(N)c5cc(OC)c(OC)cc5n4)CC3)ncc2C1=O
3. COc1cc2nc(N3CCN(c4ncc5c(=O)n(C)ccc5n4)CC3)nc(N)c2cc1OC

Result:
1: +4.3%; 2: +10.8%; 3: +5.7%

----------
Give measured change in vivo at 1 mg/kg for each item. Keep answers brief.
System: Spontaneously Hypertensive Rats
MEASUREMENT DESCRIPTION: Test 1: antihypertensive effects (systolic tail artery blood pressure) and heart rate in spontaneously hypertensive rats, oral
Format: in vivo, rat (male, SHR)
MEASUREMENT PARAMETERS: Rattus norvegicus; SHR, oral 1 mg/Kg, 3 hours; read-out: Antihypertensive effects, change (%) in blood pressure, 3 hours later
Procedure: The antihypertensive effects of the certain compounds of this invention were studied in the following manner. Among male, spontaneously hypertensive rats (SHRs) of 20 weeks of age or older and 350-430 g heavy all of which had developed hypertension, those having systolic blood pressures of 180 mmHg or higher were used in groups, each of which was constituted of 3-4 of the rats. […] Besides, heart rates were also measured simultaneously. […]
Numbers only, in %.

CCOC(=O)c1cnc(N2CCN(c3nc(N)c4cc(OC)c(OC)cc4n3)CC2)nc1C(=O)OCC [Example 84] ... 0
COc1cc2nc(N3CCN(c4ncc5c(=O)[nH]ccc5n4)CC3)nc(N)c2cc1OC [Example 3] ... -8
CNC(=O)c1cnc(N2CCN(c3nc(N)c4cc(OC)c(OC)cc4n3)CC2)nc1NC [Example 68] ... -19.6
CCOC(=O)c1cc2nc(N3CCN(c4nc(N)c5cc(OC)c(OC)cc5n4)CC3)ncc2c(=O)n1CC [Example 18] ... -3.9
COc1cc2nc(N3CCN(c4nc(SC)c5c6c(sc5n4)CCCC6C)CC3)nc(N)c2cc1OC (centres unmarked) [Example 75] ... 0.5

// for each compound below, give its change in vivo at 1 mg/kg
1. COc1cc2nc(N3CCN(c4ccc5ccccc5n4)CC3)nc(N)c2cc1OC.Cl [Example 94, hydrochloride]
2. COc1cc2nc(N3CCN(c4ncc5c(n4)CNC5=O)CC3)nc(N)c2cc1OC [Example 22]
3. CNc1nc(N2CCN(c3nc(N)c4cc(OC)c(OC)cc4n3)CC2)ncc1C(=O)N(C)C [Example 69]
4. CCNC(=O)c1cnc(N2CCN(c3nc(N)c4cc(OC)c(OC)cc4n3)CC2)nc1NCC [Example 66]
5. CCNC(=O)c1cnc(N2CCN(c3nc(N)c4cc(OC)c(OC)cc4n3)CC2)nc1N [Example 64]
6. COc1cc2nc(N3CCN(c4ncc5c(n4)N(C(C)C)C(=O)C5)CC3)nc(N)c2cc1OC [Example 30]
7. COc1cc2nc(N3CCN(c4ncc5c(=O)n(C(C)C)ccc5n4)CC3)nc(N)c2cc1OC [Example 6]

Result:
[-12.7, -10.1, -22.7, -23.7, -9.6, -24.7, -13.8]

Provide reported change in vivo at 1 mg/kg for each item, in the same order as listed.
1. CCN(CC)C(=O)c1ccc(N2CCN(c3nc(N)c4cc(OC)c(OC)cc4n3)CC2)nc1 [Example 93]
2. COc1cc2nc(N3CCN(c4ncc5c(=O)n(C6CC6)ccc5n4)CC3)nc(N)c2cc1OC [Example 11]
3. CCN1Cc2nc(N3CCN(c4nc(N)c5cc(OC)c(OC)cc5n4)CC3)ncc2C1=O [Example 23]
4. COc1cc2nc(N3CCN(c4ncc5c(=O)n(CCO)ccc5n4)CC3)nc(N)c2cc1OC [Example 7]
5. COc1cc2nc(N3CCN(c4ncc5c(n4)CN(C(C)C)C5=O)CC3)nc(N)c2cc1OC [Example 25]

Result:
[-9, -16.6, -21.9, -4.4, -23.9]

Dear colleague, could you send me change in vivo at 1 mg/kg for each of the items below? Thanks.
1. COc1cc2nc(N3CCN(c4ncc(C(=O)NN(C)C)c(C)n4)CC3)nc(N)c2cc1OC [Example 47]
2. COc1cc2nc(N3CCN(c4ncc(C(N)=O)c(C)n4)CC3)nc(N)c2cc1OC [Example 40]

Result:
-9
-15.9

For every item in the list below, what is its measured change in vivo at 1 mg/kg?
1. CCN1C(=O)CCCc2nc(N3CCN(c4nc(N)c5cc(OC)c(OC)cc5n4)CC3)ncc21 [Example 32]
2. CCOC(=O)c1cnc(N2CCN(c3nc(N)c4cc(OC)c(OC)cc4n3)CC2)nc1NC [Example 55]
3. CCn1cc(Cc2ccccc2)c2nc(N3CCN(c4nc(N)c5cc(OC)c(OC)cc5n4)CC3)ncc2c1=O [Example 15]

Result:
-30.5
-21.9
-7.7

Kindly give each listed record's change in vivo at 1 mg/kg.
1. CCn1ccc2nc(N3CCCN(c4nc(N)c5cc(OC)c(OC)cc5n4)CC3)ncc2c1=O [Example 82]
2. CCNC(=O)c1cnc(N2CCN(c3nc(N)c4cc(OC)c(OC)cc4n3)CC2)nc1CC [Example 38]
3. COc1cc2nc(N3CCN(c4ncc5c(n4)CN(CCO)C5=O)CC3)nc(N)c2cc1OC [Example 88]
4. COc1cc2nc(N3CCN(c4ncc(C(=O)Nc5ccccc5)c(C)n4)CC3)nc(N)c2cc1OC [Example 43]
5. COc1cc2nc(N3CCN(c4ncc5c(n4)CCCC(=O)N5)CC3)nc(N)c2cc1OC [Example 31]

Result:
1: -6.9; 2: -24.1; 3: -4.4; 4: 0.5; 5: -8.5

Please look at the items below and tell me change in vivo at 1 mg/kg for each one, in order.
1. CCN(CC)C(=O)c1cnc(N2CCN(c3nc(N)c4cc(OC)c(OC)cc4n3)CC2)nc1OC [Example 52]
2. COc1cc2nc(N3CCN(c4ncc(C(=O)N(C)C)c(C)n4)CC3)nc(N)c2cc1OC [Example 46]
3. COc1cc2nc(N3CCN(c4ncc5c(n4)CN(C4CCCCC4)C5=O)CC3)nc(N)c2cc1OC [Example 91]
4. COc1cc2nc(N3CCN(c4ncc5c(n4)CC(c4ccccc4)NC5=O)CC3)nc(N)c2cc1OC (centres unmarked) [Example 19]

Result:
-13
-11.9
-8
-10.1

Ask: Dear colleague, please send me the reported change in vivo at 1 mg/kg for CCNC(=O)c1cnc(N2CCN(c3nc(N)c4cc(OC)c(OC)cc4n3)CC2)nc1C(=O)NCC [Example 85] when you can.
Result: -7.3

These entries and their values trace back to patent US4734418A.
